Quick list: urease inhibitory activity IC50 (µg/mL) ± SD per entry.
Tested on: C. neoformans (H99)
Test: Anti-ureolytic activity, colorimetric urea broth microdilution
Assay type: cell-based, Cryptococcus neoformans
Test parameters: C. neoformans; read after three days; means ± SD of 3 independent experiments
The answer consists of two parts: a number and, after it, its unit.

O=[N+]([O-])c1ccc(CSc2nn3c(-c4ccccc4)nnc3s2)cc1 : 113.6 ± 5.4 µg/mL
Clc1ccc(CSc2nn3c(-c4ccccc4)nnc3s2)cc1 : 94.3 ± 5.9 µg/mL
Cc1cccc(CSc2nn3c(-c4ccccc4)nnc3s2)c1 : 112.3 ± 4.6 µg/mL
Cc1ccccc1CSc1nn2c(-c3ccccc3)nnc2s1 : 110.9 ± 3.8 µg/mL

Tested on C. neoformans (H99), the item Brc1ccc(CSc2nn3c(-c4ccccc4)nnc3s2)cc1 showed urease inhibitory activity IC50 (µg/mL) ± SD equal to 118.7 ± 5.5 µg/mL

###

Quick list: melting point per entry.

Illustrative cases are given below, each with its answer.
Clc1ccc(CSc2nn3c(-c4ccccc4)nnc3s2)cc1Cl : 215 to 217 °C
Clc1cccc(CSc2nn3c(-c4ccccc4)nnc3s2)c1 : 216 to 218 °C
Clc1ccc(CSc2nn3c(-c4ccccc4)nnc3s2)cc1 : 218 to 220 °C
Fc1cccc(CSc2nn3c(-c4ccccc4)nnc3s2)c1 : 216 to 218 °C
CSc1nn2c(-c3ccccc3)nnc2s1 : 213 to 215 °C

Note to self: melting point recorded for Brc1cccc(CSc2nn3c(-c4ccccc4)nnc3s2)c1 was 225 to 227 °C

Note to self: melting point recorded for Brc1ccccc1CSc1nn2c(-c3ccccc3)nnc2s1 was 210 to 212 °C

###

Test system: P. mirabilis
Test: Anti-ureolytic activity, colorimetric urea broth microdilution
Format: cell-based, Proteus mirabilis
Test parameters: read after 24 h, means ± SD of 3 independent experiments
Recorded metric: urease inhibitory activity IC50 (µg/mL) ± SD
Answer in µg/mL, number only, no unit symbol.

Illustrative cases are given below, each with its answer.
Brc1ccc(CSc2nn3c(-c4ccccc4)nnc3s2)cc1 : 113.7
Cc1ccccc1CSc1nn2c(-c3ccccc3)nnc2s1 : 95.7
O=[N+]([O-])c1ccc(CSc2nn3c(-c4ccccc4)nnc3s2)cc1 : 91.8

Note to self: urease inhibitory activity IC50 (µg/mL) ± SD recorded for Cc1cccc(CSc2nn3c(-c4ccccc4)nnc3s2)c1 was 96.8

###

Measured on: Jack bean urease (Canavalia ensiformis, UniProt P07374)
Sequence (P07374 whole entry, looked up): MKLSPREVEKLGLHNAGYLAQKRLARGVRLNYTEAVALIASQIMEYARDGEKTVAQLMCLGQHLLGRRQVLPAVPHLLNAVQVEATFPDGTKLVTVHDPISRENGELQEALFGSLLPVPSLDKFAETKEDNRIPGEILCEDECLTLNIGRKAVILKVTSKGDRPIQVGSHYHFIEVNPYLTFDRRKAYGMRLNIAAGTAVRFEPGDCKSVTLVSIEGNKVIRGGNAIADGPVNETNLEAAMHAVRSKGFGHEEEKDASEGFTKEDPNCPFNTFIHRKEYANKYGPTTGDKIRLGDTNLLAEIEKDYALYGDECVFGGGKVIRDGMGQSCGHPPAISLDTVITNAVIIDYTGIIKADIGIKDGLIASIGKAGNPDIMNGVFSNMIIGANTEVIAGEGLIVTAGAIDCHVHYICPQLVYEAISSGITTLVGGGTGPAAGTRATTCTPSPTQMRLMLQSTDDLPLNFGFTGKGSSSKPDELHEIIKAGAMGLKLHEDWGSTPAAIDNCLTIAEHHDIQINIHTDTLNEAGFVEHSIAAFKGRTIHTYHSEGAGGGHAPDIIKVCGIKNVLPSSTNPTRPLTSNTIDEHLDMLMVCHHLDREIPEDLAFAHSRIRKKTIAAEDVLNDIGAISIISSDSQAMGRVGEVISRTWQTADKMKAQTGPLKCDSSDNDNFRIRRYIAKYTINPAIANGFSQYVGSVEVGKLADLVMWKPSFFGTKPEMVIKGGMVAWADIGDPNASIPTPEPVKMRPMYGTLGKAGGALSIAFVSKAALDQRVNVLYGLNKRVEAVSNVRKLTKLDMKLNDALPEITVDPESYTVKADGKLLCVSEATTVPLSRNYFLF
Test: Screening of urease inhibitory activities (indophenol method, enzymatic)
Type: biochemical
Recorded metric: pIC50
Note: pIC50 values are expressed as the negative base-10 logarithm of concentration in M.

Illustrative cases are given below, each with its answer.
c1ccc(CSc2nn3c(-c4ccccc4)nnc3s2)cc1 [Compound 6a] : 6.06
Clc1ccc(CSc2nn3c(-c4ccccc4)nnc3s2)cc1 [Compound 6g] : 5.77

Note to self: pIC50 recorded for Clc1cccc(CSc2nn3c(-c4ccccc4)nnc3s2)c1 [Compound 6f] was 5.90

Note to self: pIC50 recorded for Clc1ccccc1CSc1nn2c(-c3ccccc3)nnc2s1 [Compound 6e] was 5.08

###

Recorded metric: melting point

Illustrative cases are given below, each with its answer.
Fc1ccc(CSc2nn3c(-c4ccccc4)nnc3s2)cc1 : 199 to 201 °C
Clc1ccccc1CSc1nn2c(-c3ccccc3)nnc2s1 : 224 to 226 °C
c1ccc(CSc2nn3c(-c4ccccc4)nnc3s2)cc1 : 217 to 219 °C

Now for another entry.
Note to self: melting point recorded for Fc1ccccc1CSc1nn2c(-c3ccccc3)nnc2s1 was 190 to 192 °C

###

Measured on: Jack bean urease (Canavalia ensiformis, UniProt P07374)
Test: Screening of urease inhibitory activities (indophenol method, enzymatic)
Type: biochemical
Recorded metric: IC50 (nM)
Answer in nM, number only, no unit symbol.

Brc1cccc(CSc2nn3c(-c4ccccc4)nnc3s2)c1 : 1050

Tested on Jack bean urease (Canavalia ensiformis, UniProt P07374), the item Fc1ccc(CSc2nn3c(-c4ccccc4)nnc3s2)cc1 showed IC50 equal to 1010

###

Measured on: UniProt P07374
Test: Screening of urease inhibitory activities (indophenol method, enzymatic)
Type: biochemical
Recorded metric: pIC50
Note: pIC50 values are expressed as the negative base-10 logarithm of concentration in M.

Note to self: pIC50 recorded for Fc1ccccc1CSc1nn2c(-c3ccccc3)nnc2s1 was 5.82

Note to self: pIC50 recorded for Clc1ccc(CSc2nn3c(-c4ccccc4)nnc3s2)cc1Cl was 5.85

Note to self: pIC50 recorded for Brc1ccccc1CSc1nn2c(-c3ccccc3)nnc2s1 was 5.80

Note to self: pIC50 recorded for Fc1cccc(CSc2nn3c(-c4ccccc4)nnc3s2)c1 was 5.85
